Experiment: Distribution coefficient between 1-octanol and phosphate buffer, logD of the compound after 24 hrs by shake flask assay
Format: physicochemical
Conditions: 1-octanol/phosphate buffer
Classification field: t = logD at 24 h at or over 3; f = logD at 24 h under 3.

Example results:
1. Cc1nnc(-c2ccc(Nc3nc4n(n3)CCCN4c3cccc(Cl)c3)cc2)o1
t
2. Cc1nnc(C23CCC(Nc4nc5n(n4)CCCN5c4ccc(OC(F)(F)F)cc4)(CC2)CC3)o1
t
3. Cc1cc(N2CC3CCC(C2)C3Nc2nc3n(n2)CCCC[C@H]3c2ccc(F)c(F)c2F)ncn1 (some centres undefined)
t
4. Cc1nnc(C23CC(Nc4nc5n(n4)CCCN5c4cccc(Cl)c4)(C2)C3)o1
f
5. Cc1nnc(N2CC3CCC(C2)C3Nc2nc3n(n2)CCCN3c2cccc(Cl)c2)o1 (centres undefined)
f
6. Cc1nnc(N2CC3CCC(C2)C3Nc2nc3n(n2)CCCN3c2ccc(OC(F)(F)F)cc2)o1 (centres undefined)
t
7. Cc1nnc(N2CC3CCC(C2)C3Nc2nc(Oc3cccc(Cl)c3)n(C(C)C)n2)o1 (centres undefined)
t
8. Cc1nnc(-c2ccc(Nc3nc4n(n3)CCCN4c3ccc(OC(F)(F)F)cc3)cc2)o1
t

// next entry
Input line: Does logD at 24 h meet or surpass 3 for `Cc1nnc(-c2ccc(Nc3nc(Cc4ccc(Cl)cc4)cc(C(C)(C)O)n3)cc2)o1` ?
Output line: t
